Molecular target: TR-α (Homo sapiens)
Test: In vitro TR-α activity (in-house protocol)
Assay type: cell-based
Details: Conc. 100 nM; read-out: TR-α Fold Induction w.r.t T3(100 nm)
READOUT: fold induction at 0.1 µM

Consider the reported fold induction at 0.1 µM for these compounds:
What the record says about CCC(C)c1cc(Oc2c(Cl)cc(C=NOCC(=O)O)cc2Cl)ccc1O (centres unmarked) [Example 2] : fold induction at 0.1 µM is 66.7

Per the record, CC(ON=Cc1cc(Br)c(Oc2ccc(O)c(Cc3ccccc3)c2)c(Br)c1)C(=O)O (centres unmarked) [Example 16] has fold induction at 0.1 µM of 119

Documented fold induction at 0.1 µM of CC(ON=Cc1cc(Br)c(Oc2ccc(O)c(C(O)c3ccc(Cl)cc3)c2)c(Br)c1)C(=O)O (centres unmarked) [Example 27] : 45.2

Record CC(ON=Cc1cc(Br)c(Oc2ccc(O)c(C(=O)c3ccc(Cl)cc3)c2)c(Br)c1)C(=O)O (centres unmarked) [Example 26] , field fold induction at 0.1 µM: 34.9

Given item CCC(C)c1cc(Oc2c(Br)cc(C=NOC(C(=O)O)c3ccccc3)cc2Br)ccc1O (centres unmarked) [Example 18] , the value recorded as its fold induction at 0.1 µM is 77

1: CC(ON=Cc1cc(Br)c(Oc2ccc(O)c(S(=O)(=O)NC3CCCCC3)c2)c(Br)c1)C(=O)O (centres unmarked) [Example 39]
2: CCc1cc(Oc2c(Br)cc(C=NOC(C)C(=O)O)cc2Br)ccc1O (centres unmarked) [Example 25]
Request: Consider 1 and 2 . Which of these has its fold induction at 0.1 µM at a higher number? Your answer should be the label attached to the chosen record.
Result: 2
(2: 79, 1: 13.5)

P: CCC(ON=Cc1cc(Br)c(Oc2ccc(O)c(-c3ccccc3)c2)c(Br)c1)C(=O)O (centres unmarked) [Example 21]
Q: O=C(O)CON=Cc1cc(Br)c(Oc2ccc(O)c(Cc3ccccc3)c2)c(Br)c1 [Example 9]
Request: Looking at recorded values for fold induction at 0.1 µM, does P or Q come in lower? Pick one and reply with its label.
Result: Q
(Q: 23.8, P: 50.4)

P: O=C(O)CON=Cc1cc(Br)c(Oc2ccc(O)c(C(=O)c3ccc(Cl)cc3)c2)c(Br)c1 [Example 28]
Q: CCC(C)c1cc(Oc2c(Cl)cc(C=NOC(C)C(=O)O)cc2Cl)ccc1O (centres unmarked) [Example 23]
R: CCN(CC)S(=O)(=O)c1cc(Oc2c(Br)cc(C=NOC(C)C(=O)O)cc2Br)ccc1O (centres unmarked) [Example 38]
Request: Sort (3 compounds) by fold induction at 0.1 µM: min first. Give the labels in the order requested.
Result: R, P, Q

====

Molecular target: TR-β (Homo sapiens)
Assay: In vitro TR-β activity (in-house protocol)
Assay type: cell-based
Conditions: Conc. 1 nM; read-out: TR-β Fold Induction w.r.t T3(100 nm)
READOUT: fold induction at 0.001 µM

Before answering, review these 6 worked examples.
Entry CC(C)(ON=Cc1cc(Br)c(Oc2ccc(O)c(-c3ccccc3)c2)c(Br)c1)C(=O)O , fold induction at 0.001 µM reported as 8.98

Documented fold induction at 0.001 µM of CC(ON=Cc1cc(Br)c(Oc2ccc(O)c(S(=O)(=O)NC3CCCCC3)c2)c(Br)c1)C(=O)O (centres unmarked) : 11.5

GET /value?item= CC(ON=Cc1cc(Br)c(Oc2ccc(O)c(C(O)c3cccc(Cl)c3)c2)c(Br)c1)C(=O)O (centres unmarked) &field=fold induction at 0.001 µM returns 10.9

Note to self: fold induction at 0.001 µM recorded for CC(ON=Cc1cc(Br)c(Oc2ccc(O)c(C(C)(C)C)c2)c(Br)c1)C(=O)O (centres unmarked) was 16.6

For reference, reported fold induction at 0.001 µM for CCC(C)c1cc(Oc2c(Br)cc(C=NOC(C)(C)C(=O)O)cc2Br)ccc1O (centres unmarked) stands at 23

Just so you know, measured fold induction at 0.001 µM for CC(ON=Cc1cc(Br)c(Oc2ccc(O)c(S(=O)(=O)N3CCCC3)c2)c(Br)c1)C(=O)O (centres unmarked) came out at 7.3

I: CC(C)c1cc(Oc2c(Cl)cc(C=NOCC(=O)O)cc2Cl)ccc1O
II: CCC(ON=Cc1cc(Br)c(Oc2ccc(O)c(C(C)CC)c2)c(Br)c1)C(=O)O (centres unmarked)
Request: Consider entries I and II . Which has the numerically lower fold induction at 0.001 µM? Which one? Tell me its label.
Result: I
(I: 7.72, II: 20.2)

====

Target: TR-β (Homo sapiens, UniProt P10828)
Sequence (P10828 whole entry): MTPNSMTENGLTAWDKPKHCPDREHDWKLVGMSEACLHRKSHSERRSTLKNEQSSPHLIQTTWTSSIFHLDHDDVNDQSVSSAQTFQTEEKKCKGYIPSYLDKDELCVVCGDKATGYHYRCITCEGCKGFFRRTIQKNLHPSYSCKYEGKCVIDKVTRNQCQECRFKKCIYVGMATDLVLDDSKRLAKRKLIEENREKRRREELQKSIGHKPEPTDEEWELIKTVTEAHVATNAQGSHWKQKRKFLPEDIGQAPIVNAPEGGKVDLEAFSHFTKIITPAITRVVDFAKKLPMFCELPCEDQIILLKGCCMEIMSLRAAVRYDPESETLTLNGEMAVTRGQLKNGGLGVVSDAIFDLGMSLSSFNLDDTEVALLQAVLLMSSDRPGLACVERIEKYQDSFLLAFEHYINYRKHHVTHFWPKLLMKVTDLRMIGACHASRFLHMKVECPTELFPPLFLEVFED
Assay: In vitro TR-β activity (in-house protocol)
Format: cell-based
Settings: Conc. 10 nM; read-out: TR-β Fold Induction w.r.t T3(100 nm)
READOUT: fold induction at 0.01 µM

Use the examples below as a reference point.
Record summary for CCN(CC)S(=O)(=O)c1cc(Oc2c(Br)cc(C=NOC(C)C(=O)O)cc2Br)ccc1O (stereo not shown) [Example 38] : reported fold induction at 0.01 µM = 13.6

The compound identified as CCC(C)c1cc(Oc2c(Cl)cc(C=NOCC(=O)O)cc2Cl)ccc1O (stereo not shown) [Example 2] registered its fold induction at 0.01 µM at 34.5

1: CC(ON=Cc1cc(Br)c(Oc2ccc(O)c(Cc3ccccc3)c2)c(Br)c1)C(=O)O (stereo not shown) [Example 16]
2: CCC(ON=Cc1cc(Br)c(Oc2ccc(O)c(-c3ccccc3)c2)c(Br)c1)C(=O)O (stereo not shown) [Example 21]
Request: Could you please tell me which of these two has the higher fold induction at 0.01 µM: 1 or 2 ? I would appreciate it if you answered with the label of your choice.
Result: 1
(1: 31.7, 2: 18.2)

====

Molecular target: TR-α (Homo sapiens)
Assay: In vitro TR-α activity (in-house protocol)
Type: cell-based
Settings: Conc. 1 nM; read-out: TR-α Fold Induction w.r.t T3(100 nm)
READOUT: fold induction at 0.001 µM

I: CCC(ON=Cc1cc(Br)c(Oc2ccc(O)c(-c3ccccc3)c2)c(Br)c1)C(=O)O (centres unmarked)
II: CCC(ON=Cc1cc(Br)c(Oc2ccc(O)c(Cc3ccccc3)c2)c(Br)c1)C(=O)O (centres unmarked)
III: CCC(C)c1cc(Oc2c(Br)cc(C=NOC(C)(C)C(=O)O)cc2Br)ccc1O (centres unmarked)
Request: Highest to lowest fold induction at 0.001 µM: rank the entries shown above. // list labels; follow requested order
Result: III, II, I

I: CCC(C)c1cc(Oc2c(Br)cc(C=NOC(C(=O)O)c3ccccc3)cc2Br)ccc1O (centres unmarked)
II: CC(C)c1cc(Oc2c(Br)cc(C=NOC(C)(C)C(=O)O)cc2Br)ccc1O
Request: I'm curious, which of these has a smaller fold induction at 0.001 µM number: I or II ? Identify your pick by its label.
Result: I

====

Molecular target: TR-α (Homo sapiens, UniProt P10827)
Sequence (P10827 1-410 isoform P10827-2): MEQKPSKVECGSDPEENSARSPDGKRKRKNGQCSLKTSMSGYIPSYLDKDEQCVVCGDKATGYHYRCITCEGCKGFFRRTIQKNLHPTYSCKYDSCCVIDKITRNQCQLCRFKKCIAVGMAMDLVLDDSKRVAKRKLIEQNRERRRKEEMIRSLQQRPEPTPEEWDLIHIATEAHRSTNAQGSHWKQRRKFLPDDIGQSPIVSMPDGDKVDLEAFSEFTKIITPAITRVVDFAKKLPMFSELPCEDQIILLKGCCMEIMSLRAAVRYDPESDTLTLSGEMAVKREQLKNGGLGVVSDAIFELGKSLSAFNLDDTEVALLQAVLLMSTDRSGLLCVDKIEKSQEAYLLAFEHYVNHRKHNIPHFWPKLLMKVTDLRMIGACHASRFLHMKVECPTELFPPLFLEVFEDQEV
Assay: In vitro TR-α activity (in-house protocol)
Type: cell-based
Settings: Conc. 10 nM; read-out: TR-α Fold Induction w.r.t T3(100 nm)
READOUT: fold induction at 0.01 µM

1: CCC(ON=Cc1cc(Br)c(Oc2ccc(O)c(C(C)C)c2)c(Br)c1)C(=O)O (stereo not shown)
2: O=C(O)CON=Cc1cc(Br)c(Oc2ccc(O)c(Cc3ccccc3)c2)c(Br)c1
Request: // task: argmin of fold induction at 0.01 µM over [ 1 , 2 ] Your choice should be expressed through its label.
Result: 2

a: O=C(O)CON=Cc1cc(Cl)c(Oc2ccc(O)c(-c3ccccc3)c2)c(Cl)c1
b: CC(ON=Cc1cc(Br)c(Oc2ccc(O)c(S(=O)(=O)N3CCCCC3)c2)c(Br)c1)C(=O)O (stereo not shown)
Request: // max by fold induction at 0.01 µM over [ a , b ] Please reply using the label of the selected record.
Result: b

====

Biological target: TR-β (Homo sapiens)
Assay: In vitro TR-β activity (in-house protocol)
Type: cell-based
Conditions: Conc. 10 nM; read-out: TR-β Fold Induction w.r.t T3(100 nm)
READOUT: fold induction at 0.01 µM

P: CC(C)NS(=O)(=O)c1cc(Oc2c(Br)cc(C=NOC(C)C(=O)O)cc2Br)ccc1O (centres unmarked) [Example 37]
Q: O=C(O)CON=Cc1cc(Br)c(Oc2ccc(O)c(C(=O)c3cccc(Cl)c3)c2)c(Br)c1 [Example 33]
R: CC(ON=Cc1cc(Br)c(Oc2ccc(O)c(S(=O)(=O)N3CCCCC3)c2)c(Br)c1)C(=O)O (centres unmarked) [Example 36]
S: CC(ON=Cc1cc(Br)c(Oc2ccc(O)c(C(C)(C)C)c2)c(Br)c1)C(=O)O (centres unmarked) [Example 24]
Request: With the 4 compounds above, produce a list ordered by ascending fold induction at 0.01 µM. Give the labels in the order specified.
Result: P, R, Q, S
(P: 9.07, R: 19.7, Q: 30.1, S: 48.9)

I: CC(ON=Cc1cc(Br)c(Oc2ccc(O)c(C(O)c3cccc(Cl)c3)c2)c(Br)c1)C(=O)O (centres unmarked) [Example 34]
II: CCc1cc(Oc2c(Br)cc(C=NOC(C)C(=O)O)cc2Br)ccc1O (centres unmarked) [Example 25]
III: O=C(O)CON=Cc1cc(Br)c(Oc2ccc(O)c(C(=O)c3ccc(Br)cc3)c2)c(Br)c1 [Example 31]
Request: List the 3 entries from lowest fold induction at 0.01 µM to highest fold induction at 0.01 µM value. Your answer should be the labels, listed in the requested order.
Result: I, III, II
(I: 9.74, III: 14.3, II: 37.1)
